Target: M319A DegS (Escherichia coli, UniProt P0AEE3, M319A)
Sequence (P0AEE3 27-355 M319A): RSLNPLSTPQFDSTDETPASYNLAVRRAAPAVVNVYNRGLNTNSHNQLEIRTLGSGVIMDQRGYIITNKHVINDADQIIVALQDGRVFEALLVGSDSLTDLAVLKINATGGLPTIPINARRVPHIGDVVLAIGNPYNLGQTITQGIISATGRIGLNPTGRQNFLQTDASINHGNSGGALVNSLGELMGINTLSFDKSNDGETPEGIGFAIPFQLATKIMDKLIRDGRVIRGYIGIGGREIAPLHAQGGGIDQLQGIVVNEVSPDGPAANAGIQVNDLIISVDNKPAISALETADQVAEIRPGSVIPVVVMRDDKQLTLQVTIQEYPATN
Test: OMP-peptide activation of RseA cleavage by M319A DegS
Residues, ends and D or L forms follow the SMILES beside them.
measured property: pEC50
Answers are plain numbers, as −log10 of the molar value.

Look up and state reported pEC50 for N[C@@H](Cc1ccc(O)cc1)C(=O)N[C@@H](Cc1ccc(O)cc1)C(=O)N[C@@H](Cc1ccccc1)C(=O)O [YYF] (H-Tyr-Tyr-Phe-OH) 5.49
